Reported t1/2 values for a set of compounds
# test_summary: Prodrug conversion in PBS buffer assessed as half life at pH 7.4 and 37 degC by HPLC analysis
# Format: physicochemical
Use h as the unit, but write only the number.

Cl.NC(=O)CC[C@H](N)C(=O)OCCOc1cccc2c1C(=O)c1c(OCCOC(=O)[C@@H](N)CCC(N)=O)cc(NC(=O)CCl)cc1C2=O    2.285
CC(C)C[C@H](N)C(=O)OCCOc1cccc2c1C(=O)c1c(OCCOC(=O)[C@@H](N)CC(C)C)cc(NC(=O)CCl)cc1C2=O.Cl    2.128
Cl.N=C(N)NCCC[C@H](N)C(=O)OCCOc1cccc2c1C(=O)c1c(OCCOC(=O)[C@@H](N)CCCNC(=N)N)cc(NC(=O)CCl)cc1C2=O    3.118
CC[C@H](C)[C@H](N)C(=O)OCCOc1cccc2c1C(=O)c1c(OCCOC(=O)[C@@H](N)[C@@H](C)CC)cc(NC(=O)CCl)cc1C2=O.Cl    2.575
CSCC[C@H](N)C(=O)OCCOc1cccc2c1C(=O)c1c(OCCOC(=O)[C@@H](N)CCSC)cc(NC(=O)CCl)cc1C2=O.Cl    0.747

Now let's try a different one.
Problem: Fill in reported t1/2 for this entry: Cl.N[C@@H](Cc1ccc(O)cc1)C(=O)OCCOc1cccc2c1C(=O)c1c(OCCOC(=O)[C@@H](N)Cc3ccc(O)cc3)cc(NC(=O)CCl)cc1C2=O
Solution: 1.18
